Measurement Target: rat cortical α1 receptor
Measurement Description: Test B: [3H]Prazosin displacement from rat cortical α1 receptor binding sites
Condition: rat cerebral cortex membranes, [3H]prazosin 0.1 nM, 25° C., 30 minutes, pH 7.5
Structures can show the parent of a compound that is named as a salt.
Result Type: IC50 (nM)

Compound	Result Type	Test Value
CC(C)CN1CCc2sc3ccccc3c(=O)c2C1 [Example 19, hydrochloride]	IC50	4600

A = O=C(CCCN1CCc2sc3ccccc3c(=O)c2C1)c1ccc(F)cc1 [Example 16, hydrochloride]
B = O=c1c2c(sc3ccccc13)CCN(CC1=CCCCC1)C2 [Example 29]
C = CCCN1CCc2sc3ccccc3c(=O)c2C1 [Example 11, hydrochloride]
D = NC(=O)CCN1CCc2sc3ccccc3c(=O)c2C1 [Example 23, hydrochloride]
Hey, quick one: sort these by IC50, largest value first please. Give your ranking as a list of the labels in the requested order.
D, B, C, A

A = CCN1CCc2sc3ccccc3c(=O)c2C1 [Example 13, hydrochloride]
B = CCCCCN1CCc2sc3ccccc3c(=O)c2C1 [Example 17, hydrochloride]
C = O=c1c2c(sc3ccccc13)CCNC2 [Example 1, hydrochloride]
D = O=c1c2c(sc3ccccc13)CCN(CCc1ccccc1)C2 [Example 32]
Order field: IC50 | Direction: descending (largest first) Present the labels in the sequence the task asks for.
C, A, B, D

I = O=c1c2c(sc3c1ccc1ccccc13)CCNC2 [Example 8, hydrochloride]
II = CCCCCCN1CCc2sc3ccccc3c(=O)c2C1 [Example 18, hydrochloride]
Could you tell me which of I and II has the lower IC50 reading? Your choice should be expressed through its label.
II

a = O=c1c2c(sc3ccccc13)CCN(CCCn1c(=O)[nH]c3ccccc31)C2 [Example 36]
b = CN1CCc2sc3ccccc3c(=O)c2C1 [Example 12, hydrochloride]
So which one has the bigger IC50 here, a or b ? In your reply, give the label of the chosen option.
b
(b: 3100 nM, a: 190 nM)

====

Measurement Target: rat cortical muscarinic receptor
Measurement Description: Test D: [3H]Quinuclidinyl benzylate displacement from rat cortical muscarinic receptor binding sites
Condition: rat cortical membranes, [3H]quinuclidinyl benzylate 0.31 nM, 25° C., 60 minutes; read-out: Test D MUSC IC50
Where a name gives a salt, the structure may show the parent alone.
Result Type: IC50 (µM)

Compound	Measurement Target	Test Value
O=c1c2c(sc3ccccc13)CCN(CCc1ccccc1)C2	rat cortical muscarinic receptor	46.8
O=c1c2c(sc3ccccc13)CCN(CCCn1c(=O)[nH]c3ccccc31)C2	rat cortical muscarinic receptor	44.7
CN1CCc2sc3ccccc3c(=O)c2C1 [Example 12, hydrochloride]	rat cortical muscarinic receptor	32.4

A = O=c1c2c(sc3ccccc13)CCN(CC1CC1)C2
B = O=c1c2c(sc3ccccc13)CCN(CCC1OCCCO1)C2
Pick one: A or B . Which one has the lower reported IC50? Pick one; state its label.
A
(A: 43 µM, B: 74.1 µM)

====

Counter-ions that a name gives are not always drawn.
Entries with reported IC50 on rat striatal dopamine receptor (Rattus norvegicus)
Sequence (P61169 whole entry): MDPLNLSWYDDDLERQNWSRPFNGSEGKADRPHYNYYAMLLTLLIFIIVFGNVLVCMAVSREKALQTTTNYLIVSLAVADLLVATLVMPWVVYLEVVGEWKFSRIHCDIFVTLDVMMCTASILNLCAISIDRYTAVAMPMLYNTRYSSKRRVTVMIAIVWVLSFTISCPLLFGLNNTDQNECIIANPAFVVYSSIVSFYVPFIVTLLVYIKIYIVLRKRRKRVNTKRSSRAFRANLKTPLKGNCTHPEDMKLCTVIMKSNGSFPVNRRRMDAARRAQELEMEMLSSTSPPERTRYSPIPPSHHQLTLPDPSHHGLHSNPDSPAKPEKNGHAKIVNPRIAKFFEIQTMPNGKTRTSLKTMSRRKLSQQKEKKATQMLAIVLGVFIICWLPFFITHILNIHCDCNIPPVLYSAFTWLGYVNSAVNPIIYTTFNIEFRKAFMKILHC
Result Type: IC50 (nM)

Worked set:
Molecule	Result Type	Test Value
O=c1c2c(sc3ccccc13)CCN(CC1CCC1)C2	IC50	60
O=c1c2c(sc3ccccc13)CCNC2 [Example 1, hydrochloride]	IC50	6500
CN1CCc2sc3ccccc3c(=O)c2C1 [Example 12, hydrochloride]	IC50	2800
COc1ccc2sc3c(c(=O)c2c1)CN(CC1CCCCC1)CC3 [Example 38, hydrochloride]	IC50	760

P = CCCCCN1CCc2sc3ccccc3c(=O)c2C1 [Example 17, hydrochloride]
Q = O=c1c2c(sc3ccccc13)CCN(CC1=CCCCC1)C2
Please state the entry with greater IC50 among P and Q . Output the label that corresponds to your choice.
Q
(Q: 170 nM, P: 70 nM)

====

Where a name gives a salt, the structure may show the parent alone.
Data export: IC50 values recorded with UniProt P61169.
Result Type: IC50 (nM)

Compound	Measure Unit	Test Value
O=c1c2c(sc3ccccc13)CCN(CC1CCCC1)C2 [Example 27]	nM	40
CCCCCCN1CCc2sc3ccccc3c(=O)c2C1 [Example 18, hydrochloride]	nM	130
CCN1CCc2sc3ccccc3c(=O)c2C1 [Example 13, hydrochloride]	nM	1000
CC(C)CN1CCc2sc3ccccc3c(=O)c2C1 [Example 19, hydrochloride]	nM	100
CCCCN1CCc2sc3ccccc3c(=O)c2C1 [Example 14, hydrochloride]	nM	80
O=c1c2c(sc3ccc(F)cc13)CCN(CC1CCCCC1)C2 [Example 24, hydrochloride]	nM	40

A = O=c1c2c(sc3ccccc13)CCN(CC1CC1)C2 [Example 25]
B = O=C(CCCN1CCc2sc3ccccc3c(=O)c2C1)c1ccc(F)cc1 [Example 16, hydrochloride]
C = O=c1c2c(sc3ccccc13)CCN(CCO)C2 [Example 35]
D = CCCN1CCc2sc3ccccc3c(=O)c2C1 [Example 11, hydrochloride]
Highest IC50 first, then in falling order down to the smallest. Could you list the labels in the order requested?
C, D, A, B
(C: 10000 nM, D: 490 nM, A: 220 nM, B: 20 nM)

====

Measurement Target: rat cortical muscarinic receptor
Measurement Description: Test D: [3H]Quinuclidinyl benzylate displacement from rat cortical muscarinic receptor binding sites
Condition: rat cortical membranes, [3H]quinuclidinyl benzylate 0.31 nM, 25° C., 60 minutes; read-out: Test D MUSC IC50
Where a name gives a salt, the structure may show the parent alone.
# IC50 per entry

# example entries with known answers
Compound	Result Type	Test Value
O=c1c2c(sc3ccccc13)CCN(CCC1CCCCC1)C2 [Example 30]	IC50	> 100 µM
N#CCCN1CCc2sc3ccccc3c(=O)c2C1 [Example 22, hydrochloride]	IC50	> 100 µM
CCCN1CCc2sc3ccccc3c(=O)c2C1 [Example 11, hydrochloride]	IC50	> 100 µM

Determine from records and report IC50 for O=c1c2c(sc3ccc(F)cc13)CCN(CC1CCCCC1)C2 [Example 24, hydrochloride]
> 100 µM

Using known records, supply IC50 for O=c1c2c(sc3ccccc13)CCN(CC1=CCCCC1)C2 [Example 29]
> 100 µM

Provide IC50 value for the following compound: O=C(CN1CCc2sc3ccccc3c(=O)c2C1)c1ccccc1 [Example 33]
> 100 µM

====

Data export: pIC50 values recorded with rat striatal dopamine receptor (Rattus norvegicus).
pIC50: −log10 of the molar value. Where a name gives a salt, the structure may show the parent alone.
Result Type: pIC50

Compound	pIC50
CCOC(=O)CCN1CCc2sc3ccccc3c(=O)c2C1 [Example 21, hydrochloride]	6.11
O=c1c2c(sc3c1ccc1ccccc13)CCNC2 [Example 8, hydrochloride]	6.17
O=c1c2c(sc3ccccc13)CCN(Cc1ccccc1)C2 [Example 6, hydrochloride]	6.17

====

Measurement Target: rat cortical α1 receptor
Measurement Description: Test B: [3H]Prazosin displacement from rat cortical α1 receptor binding sites
Condition: rat cerebral cortex membranes, [3H]prazosin 0.1 nM, 25° C., 30 minutes, pH 7.5
Structures can show the parent of a compound that is named as a salt.
Result Type: IC50

Compound	Test Value
Cc1ccc2sc3c(c(=O)c2c1)CNCC3 [Example 2, hydrochloride]	> 10 µM
COc1ccc2c(=O)c3c(sc2c1)CCNC3 [Example 3, hydrochloride]	> 10 µM

Now turn to the next compound.
Hello, please tell me recorded IC50 for this one: N#CCCN1CCc2sc3ccccc3c(=O)c2C1 [Example 22, hydrochloride]
> 10 µM

====

Counter-ions that a name gives are not always drawn.
Observed IC50 for rat striatal dopamine receptor (Rattus norvegicus, UniProt P61169), reported per entry below.

For orientation, consider the following solved cases.
Compound	Measurement Target	Test Value
N#CCCN1CCc2sc3ccccc3c(=O)c2C1 [Example 22, hydrochloride]	rat striatal dopamine receptor (Rattus norvegicus, UniProt P61169)	> 10 µM
O=C(CN1CCc2sc3ccccc3c(=O)c2C1)c1ccccc1	rat striatal dopamine receptor (Rattus norvegicus, UniProt P61169)	> 10 µM

Provide rat striatal dopamine receptor (Rattus norvegicus, UniProt P61169) IC50 reading for COc1ccc2c(=O)c3c(sc2c1)CCNC3 [Example 3, hydrochloride] .
> 10 µM

====

Counter-ions that a name gives are not always drawn.
A set of compounds tested on UniProt P61169, with measured IC50:
Result Type: IC50 (nM)

Compound	Measurement Target	IC50 / nM
O=c1c2c(sc3ccccc13)CCN(CCC1CCCCC1)C2	UniProt P61169	180

A = O=c1c2c(sc3ccccc13)CCN(C1CCCCC1)C2
B = O=c1c2c(sc3ccccc13)CCN(CC1CCCCC1)C2 [Example 20, hydrochloride]
// which entry reports the smaller IC50, A or B ? // output: label of the selected item
B
